Target: Cathepsin B from bovine spleen (bovine, UniProt P07688 80-332)
Experiment: cell-based or functional assay
Parameter: Cathepsin B inhibition test, 2 mM peptide
I only need the number, thanks.

Example binders with recorded Cathepsin B inhibition test, 2 mM peptide:
Give the measured Cathepsin B inhibition test, 2 mM peptide of H-Met-Asp-Lys-OH [H-MDK-OH] .
104

Give the measured Cathepsin B inhibition test, 2 mM peptide of Ac-Thr-Asp-Lys-OH (also: MGO-modified, site not given here) [MGO-modified Ac-TDK-OH] .
92.8

Moving on to the next binder.
Give the measured Cathepsin B inhibition test, 2 mM peptide of H-Met-Asn-Arg-OH (also: MGO-modified, site not given here) [MGO-modified H-MNR-OH] .
78.6

The reported numbers originate from patent US20150337019A1.
